System: Human alphaherpesvirus 1
Format: functional, 29R, Vero E6
Details: time 72 hrs
Each item that follows carries a reported EC.
# value in µg/mL; strip the unit string

Solved cases (4 shown):
compound | studyTarget | EC / µg/mL
CC(C)c1ccc2c(c1)CC[C@H]1C(C)(C(=O)O)CCC[C@]21C (stereo not given in full) | Human alphaherpesvirus 1 | 25
COC(=O)[C@]1(C)CCC[C@]2(C)c3ccc(C(C)C)cc3CC[C@@H]12 | Human alphaherpesvirus 1 | 25
Nc1nc2c(ncn2COCCO)c(=O)[nH]1 | Human alphaherpesvirus 1 | 1.5
CC(C)c1cc2c(cc1O)[C@@]1(C)CCC[C@](C)(CO)[C@@H]1CC2 | Human alphaherpesvirus 1 | 12.5

Now, please, on to the next compound.
In plain terms, "COC(=O)[C@]1(C)CCC[C@]2(C)c3cc(O)c(C(C)C)cc3C(=O)C[C@@H]12" has a documented EC of 25

* * *

Each item that follows carries a reported CC100.
Test system: Vero C1008
Experiment: Cytotoxicity against African green monkey Vero E6 cells measured after 72 hrs by MTT assay
Type: toxicity, cell-based
Conditions: chlorocebus sabaeus, vero c1008, 72 h

compound | studyTarget | CC100
CC(C)c1cc2c(cc1O)[C@@]1(C)CCC[C@](C)(CO)[C@@H]1CC2=O | Vero C1008 | > 25 µg/mL
CC(C)c1ccc2c(c1)CC[C@H]1C(C)(CO)CCC[C@]21C (stereo not given in full) | Vero C1008 | > 50 µg/mL
CC(C)c1cc2c(cc1O)[C@@]1(C)CCC[C@@](C)(C(=O)O)[C@@H]1CC2=O | Vero C1008 | > 50 µg/mL
CC(C)c1ccc2c(c1O)CC[C@H]1[C@](C)(CO)CCC[C@]21C | Vero C1008 | > 25 µg/mL

Now, please, on to the next compound.
In plain terms, "COC(=O)[C@@]1(C)CCC[C@]2(C)c3cc(O)c(C(C)C)cc3CC[C@@H]12" has a documented CC100 of > 50 µg/mL
